- measured.on: PARP1 (Homo sapiens, UniProt P09874)
- Sequence (P09874 whole entry): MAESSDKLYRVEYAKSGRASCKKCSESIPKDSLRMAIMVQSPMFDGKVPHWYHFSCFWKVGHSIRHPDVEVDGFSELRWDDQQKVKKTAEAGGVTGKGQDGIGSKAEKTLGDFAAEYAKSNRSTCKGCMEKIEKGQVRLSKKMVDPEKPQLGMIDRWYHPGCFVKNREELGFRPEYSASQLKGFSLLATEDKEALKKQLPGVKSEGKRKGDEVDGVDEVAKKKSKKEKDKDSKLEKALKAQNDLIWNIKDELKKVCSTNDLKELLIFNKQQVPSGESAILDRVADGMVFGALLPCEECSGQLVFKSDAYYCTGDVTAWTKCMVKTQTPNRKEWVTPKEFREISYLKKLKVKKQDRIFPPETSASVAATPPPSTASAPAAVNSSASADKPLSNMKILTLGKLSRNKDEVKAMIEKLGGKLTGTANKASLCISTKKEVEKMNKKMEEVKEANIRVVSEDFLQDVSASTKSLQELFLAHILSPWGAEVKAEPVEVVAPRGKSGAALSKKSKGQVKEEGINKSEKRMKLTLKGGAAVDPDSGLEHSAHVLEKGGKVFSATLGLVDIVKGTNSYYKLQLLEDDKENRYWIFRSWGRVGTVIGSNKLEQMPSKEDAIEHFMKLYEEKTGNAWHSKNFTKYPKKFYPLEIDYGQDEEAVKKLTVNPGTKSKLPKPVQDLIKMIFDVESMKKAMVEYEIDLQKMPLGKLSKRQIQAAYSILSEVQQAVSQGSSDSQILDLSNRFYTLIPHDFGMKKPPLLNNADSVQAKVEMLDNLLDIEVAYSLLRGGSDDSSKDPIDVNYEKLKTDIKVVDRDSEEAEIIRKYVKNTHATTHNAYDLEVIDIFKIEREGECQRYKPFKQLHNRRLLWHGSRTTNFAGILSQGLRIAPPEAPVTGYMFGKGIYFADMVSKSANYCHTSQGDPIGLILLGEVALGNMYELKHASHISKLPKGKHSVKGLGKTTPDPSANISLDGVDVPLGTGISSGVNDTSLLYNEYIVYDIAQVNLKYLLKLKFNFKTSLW
- assay.comment: Michaelis-Menten kinetic analysis of PARP1 enzymatic activity in solution (FIG. 1)
- Assay type: biochemical
- condition.info: intercept of Lineweaver-Burk plot; 50 micromolar inhibitor, pH 7.3; read-out: inhibition constant
readout.name: Ki

INPUT: # query: Ki of entry O=c1[nH]c(=O)n([C@H]2C[C@H](O)[C@@H](CO)O2)cc1Br [Bromodeoxyuridine, 5-bromodeoxyuridine]
OUTPUT: 10 to 30 µM
